B1: library; numbered along this chain (parent)
chain: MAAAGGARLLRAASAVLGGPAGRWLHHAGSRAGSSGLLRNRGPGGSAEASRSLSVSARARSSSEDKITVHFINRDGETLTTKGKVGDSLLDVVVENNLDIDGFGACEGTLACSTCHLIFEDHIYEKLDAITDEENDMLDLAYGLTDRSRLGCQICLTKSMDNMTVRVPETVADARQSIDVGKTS

Variants of: B1
RUN DESCRIPTION: scaled log2 fold change in cell abundance, elesclomol vs control (0 = silent mean, 1 = nonsense mean) (scaled log2 ratio); higher = higher viability under elesclomol (loss of FDX1 cuproptosis function);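 note: variant abundance is its share of total variant reads in each endpoint sample, from next-generation sequencing of the integrated ORF PCR-amplified out of genomic DNA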
RECORDED CONDITIONS: with HEK293T FDX1 KO; elesclomol 40 nM; glucose 10 mM; 11 days
Listed here are variants together with their documented scaled log2 fold change.

See these solved cases before continuing.
>  <MUTATION ID>
R51D

>  <PARAMETER>
scaled log2 fold change

>  <VALUE REPORTED>
-0.181

$$$$
>  <MUTATION ID>
S177N

>  <PARAMETER>
scaled log2 fold change

>  <VALUE REPORTED>
0.0839

$$$$

Query :: What value of measured scaled log2 fold change is listed for N96A ?
Result :: 1.03
